target: hGLP-1R (Homo sapiens, UniProt P43220); assay: cell-based or functional assay
Sequence (P43220 24-463): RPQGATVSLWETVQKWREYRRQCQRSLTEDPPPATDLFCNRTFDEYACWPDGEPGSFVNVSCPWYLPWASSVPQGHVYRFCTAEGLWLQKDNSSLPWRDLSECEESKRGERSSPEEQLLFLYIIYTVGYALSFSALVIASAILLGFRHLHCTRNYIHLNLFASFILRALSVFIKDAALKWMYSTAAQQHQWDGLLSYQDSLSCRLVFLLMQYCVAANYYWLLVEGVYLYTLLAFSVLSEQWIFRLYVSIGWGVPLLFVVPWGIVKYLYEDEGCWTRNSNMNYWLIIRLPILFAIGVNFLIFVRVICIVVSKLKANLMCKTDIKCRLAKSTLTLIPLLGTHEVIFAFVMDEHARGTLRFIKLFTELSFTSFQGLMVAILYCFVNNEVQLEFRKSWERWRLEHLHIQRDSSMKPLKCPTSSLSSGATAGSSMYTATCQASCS
Readout Label: cAMP Rel EC50, nM (1% HSA) (nM)
Numbers only, in nM.

{"columns": ["Binder", "cAMP Rel EC50, nM (1% HSA), nM"],
 "data": [
  ["YXQGTXTSDXXIXLDXKAQXXFIEXLIEGGPSSGAPEPSEG (synthetic construct; SITE 2: note = 2-Aminoisobutyric Acid; SITE 6: note = alpha-methyl-2-fluoro-L-phenylalanine; SITE 10: note = 3-(4-Pyridyl)-L-alanine; SITE 11: note = alpha-methyl-L-serine; SITE 13: note = alpha-methyl-leucine; SITE 16: note = L-ornithine; SITE 17: note = Lysine is chemically mo) [Example 429]", 12.1],
  ["YXQGTXTSDXXIXLDXKAQXSFIEXLIEGGPSSGEPPPE (synthetic construct; SITE 2: note = 2-Aminoisobutyric Acid; SITE 6: note = alpha-methyl-2-fluoro-L-phenylalanine; SITE 10: note = 3-(4-Pyridyl)-L-alanine; SITE 11: note = alpha-methyl-L-serine; SITE 13: note = alpha-methyl-leucine; SITE 16: note = L-ornithine; SITE 17: note = Lysine is chemically mo) [Example 436]", 11.7]
]}

Incoming: cAMP Rel EC50, nM (1% HSA) for YXQGTFTSDXSXXLDKKAQXAFIEYLIAGGPSSGAPPPSESE (Aib, 4Pal, Orn, αMeL, Me4Pal; acylated Lys; C-terminal amide; synthetic construct; SITE 2: note = 2-Aminoisobutyric Acid; SITE 10: note = 3-(4-Pyridyl)-L-alanine; SITE 12: note = L-ornithine; SITE 13: note = alpha-methyl-leucine; SITE 17: note = Lysine is chemically modified through conjugation of the epsilon-amino group of the Lysine side chain with (gamma-Gl)) [Example 1010] ?
Outgoing: 218
